Catalogue of TD50 at 0.5 h values
testDetails: Neurotoxicity in ip dosed Mus musculus Kunming (mouse) assessed as minimal motor impairment at 0.5 hr by rotarod test
Type: toxicity, organism-based
statedConditions: in vivo
valueKind: TD50 at 0.5 h

entrySmiles	reportedValue
c1ccc(-c2nc3ccc(-n4cnnc4)cc3o2)cc1	285 mg/kg
Cc1nncn1-c1ccc2nc(-c3ccccc3)oc2c1	167 mg/kg
COc1cccc(-c2nncn2-c2ccc3nc(-c4ccccc4)oc3c2)c1	249 mg/kg
c1ccc(-c2nc3ccc(-n4cnnc4-c4ccccc4)cc3o2)cc1	266 mg/kg

---

ED50 listing for selected compounds.
Tested on: Mus musculus
testDetails: Anticonvulsant activity in ip dosed Mus musculus Kunming (mouse) assessed as protection against maximal electroshock-induced seizures at 0.5 hr
Format: functional

entrySmiles	unitAnnotation	ED50
c1ccc(-c2nc3ccc(-n4cnnc4-c4ccccc4)cc3o2)cc1	mg/kg	65.4
c1ccc(-c2nc3ccc(-n4cnnc4)cc3o2)cc1	mg/kg	29.5
COc1cccc(-c2nncn2-c2ccc3nc(-c4ccccc4)oc3c2)c1	mg/kg	66.5
Cc1nncn1-c1ccc2nc(-c3ccccc3)oc2c1	mg/kg	26.5

This collection of values is drawn from ChEMBL document CHEMBL3045922.
